# credit: ChEMBL document CHEMBL4513216

Test: Toxicity liver stage against HepG2, at 10uM
Type: cell-based
Parameters: test concentration 10 uM, cell line HepG2-A16-CD81EGFP
Conditions: human, HepG2-A16-CD81EGFP cells; read-out: INHIBITION
Parameter: cytotoxicity at 10 µM. Scope: all listed entries.
Quantity: cytotoxicity at 10 µM (%)

compound="CC1CN(C(=O)c2cc[nH]c(=O)c2)c2ccccc21 (stereo unspecified)" reported_value=1.5
compound=Cn1cc(CN2CCOC[C@H]2c2nc(C(C)(C)C)co2)c2ccccc21 reported_value=1.21
compound="O=C(CCc1ccccc1)N1CCCCC1Cn1cccn1 (stereo unspecified)" reported_value=3.78
compound=COCCN1CCO[C@@H]2CN(Cc3ccc(C)o3)C[C@@H]2C1 reported_value=-7.24
compound="Cc1ccn(-c2ccc(C(=O)N3CCCC(n4ccnc4)C3)cc2)n1 (stereo unspecified)" reported_value=-8.31
compound=O=C(c1nn(-c2ccccc2F)cc1O)N1CCCSCC1 reported_value=-0.0414
compound="Cc1cccc(-c2c[nH]c(C3CCCN3C(=O)Cn3cc(C)cn3)n2)c1 (stereo unspecified)" reported_value=4.56
compound=c1ncn(Cc2ccc(CNCc3ccc4c(c3)OCCO4)cc2)n1 reported_value=-1.66
compound=O=S(=O)(c1cc(F)ccc1N1CC(n2cccn2)C1)C(F)(F)F reported_value=11.3
compound="CCC(=O)N1CCCC1c1nc(N(C)C)ncc1-c1ccc(Cl)cc1 (stereo unspecified)" reported_value=5.82
compound=Cc1cnc(C(=O)N2C[C@@H]3CC[C@H]2CN(S(=O)(=O)N(C)C)C3)cn1 reported_value=-6.77

====

Experiment: Toxicity liver stage against HepG2, at 10uM
Assay type: cell-based
Set-up: test concentration 10 uM, cell line HepG2-A16-CD81EGFP
Settings: human, HepG2-A16-CD81EGFP cells; read-out: INHIBITION
Parameter: cytotoxicity at 10 µM. Scope: all listed entries.
Quantity: cytotoxicity at 10 µM

molecule="Cc1ccc(-c2nc(CN3CCCC(C(=O)N(C)C)C3)cs2)o1 (stereo unspecified)" reported_value=-14%
molecule="Cc1noc(C2CCN(C(C)c3nc(C(C)(C)C)no3)CC2)n1 (stereo unspecified)" reported_value=4.13%
molecule="Clc1ccc(OCCc2cc(C3CCN(c4ncccn4)C3)n[nH]2)cc1 (stereo unspecified)" reported_value=7.45%
molecule=CC1(c2cc[nH]n2)CCN(C(=O)c2ccc(Cl)cc2)CC1 reported_value=0.812%
molecule=Cc1occc1C(=O)N1C[C@@H]2CCCO[C@@H]2[C@H](NC(=O)CC2CC2)C1 reported_value=-102%
molecule="CS(=O)(=O)N1CCCC1c1cccc(Cc2ccccc2F)n1 (stereo unspecified)" reported_value=-13.2%
molecule="O=C1CC[C@H]2[C@H](CCN2C(=O)C2CCOC2)N1Cc1ccncc1 (stereo partly specified)" reported_value=6.67%
molecule=CCn1cnnc1C1CCN(C(=O)c2ccoc2C)CC1 reported_value=-8.04%
molecule="COc1ccc(F)cc1C[S+]([O-])CC(=O)NCc1ccccc1C (stereo unspecified)" reported_value=-0.907%
molecule=Nc1ncccc1CN1CCCn2nc(CCC(=O)NC3CC3)cc2C1 reported_value=1.45%
molecule=Cc1nc(CNC(=O)Nc2ccc3c(ccn3CCN(C)C)c2)no1 reported_value=-21.8%

====

Test: Toxicity liver stage against HepG2, at 10uM
Type: cell-based
Design: test concentration 10 uM, cell line HepG2-A16-CD81EGFP
Conditions: human, HepG2-A16-CD81EGFP cells; read-out: INHIBITION
Quantity: cytotoxicity at 10 µM (%)

compound=Cc1ccc(S(=O)(=O)NC(=O)CCOCC(C)C)s1 reported_value=-5.36
compound="O=S1(=O)c2ccccc2C2(CCN(Cc3ccccc3)C2)N1CC1CC1 (configuration not stated)" reported_value=16.3
compound=Fc1ccc(CN2CCC3(CC2)CN(c2ccccn2)CCO3)cc1 reported_value=-0.359
compound=O=C(O)c1ccnc2c(Br)cccc12 reported_value=8.02
compound=CCO[C@H]1C[C@@H](O)C12CCN(C(=O)CCN1CCCC1=O)CC2 reported_value=2.12
compound=Cc1cnc(C)c(Oc2ccc(CN3CCCC3)cc2Cl)n1 reported_value=-1.37
compound=Cc1cnn(C2CN(CC(=O)NCCc3cccs3)C2)c1 reported_value=-3.92
compound=Cc1ncsc1CCN(C)C1CCN(c2ncnc3[nH]cnc23)CC1 reported_value=-39
compound=Cn1c(C(F)(F)F)nn(CCNC(=O)CCc2ccccc2)c1=O reported_value=10.7
compound="Cc1nc(C)n(CC2CN(Cc3nc4ccccc4s3)CCO2)n1 (configuration not stated)" reported_value=44.4
compound=c1cncc(CN2CCC(NCCc3ccc4c(c3)OCO4)CC2)c1 reported_value=-9.62
compound=Cc1cc2ccccc2n1CCC(=O)N1CCC2(CC1)CNC(=O)C2 reported_value=0.105
